- System: EKVX NSCLC
- experiment: NCI-60 one-dose screen, 48 h
- measurement_conditions: 10 µM
The panel holds about 83,000 compounds, 20% with a hit somewhere; the sample as a whole holds those more often. The source made the active and inactive calls. Rule for the calls: active = growth percent below 10; inactive = the rest.
Classes used: active, inactive

# compound, target_system, class
rows = [
    ("COc1ccc2c(c1)/C(=C/c1cc(OC)c(OC)c(OC)c1)C(=O)N2C", "EKVX NSCLC", "inactive"),
    ("N#CC1C=Cc2c(ccc3ccccc23)N1C(=O)c1ccccc1 (stereo not given)", "EKVX NSCLC", "inactive"),
    ("O=C(NCc1cn(Cc2cccc(Oc3ccccc3)c2)nn1)c1cccnc1Nc1ccccc1", "EKVX NSCLC", "inactive"),
    ("Cn1c(=O)c2[nH]c(C(O)c3ccc(Cl)cc3)nc2n(C)c1=O (stereo not given)", "EKVX NSCLC", "inactive"),
    ("Cc1cc(C#Cc2ccccc2)ccc1-n1c(/C=C/c2cc(O)ccc2O)nc2ccccc2c1=O", "EKVX NSCLC", "active"),
]

* * *

- System: K-562 leukemia
- experiment: NCI-60 one-dose screen, 48 h
- measurement_conditions: 10 µM
About 83,000 compounds went through this panel and 20% of them were active in at least one assay; those are over-represented in the sample as a whole. Calls of active or inactive are those of the source. The calls were made as follows: active = growth percent below 10; inactive = the rest.
Classes used: 1 (active), -1 (inactive)

# molecule, class
records = [
    ("COc1cccc(-c2nnc(COc3ccc(-c4nc5ccc(C)cc5[nH]4)cc3OC)o2)c1", -1),
    ("Cc1ccc(C)c2c1sc1nc3n[nH]c(N)c3c(=N)n12", -1),
    ("CCOC(=O)C(CCC1=NC(C)(C)CC(C)O1)C(=O)OCC (configuration not stated)", -1),
    ("CC(C)C(C)C(N)C(=O)O (configuration not stated)", -1),
    ("O=C(NCc1cn(Cc2cccc(Oc3ccccc3)c2)nn1)c1cccnc1Nc1ccccc1", -1),
    ("O=NN(CCCl)C(=O)Nc1ccc(NC(=O)N(CCCl)N=O)cc1", -1),
    ("COc1cc(C2CC(=O)Nc3c2c(C)nn3-c2nc3ccccc3[nH]2)cc(OC)c1O (configuration not stated)", -1),
    ("Nc1nc(SCC#CCCl)c2[nH]cnc2n1", -1),
    ("Cc1ccc(Cl)cc1Nc1nc(C(F)(F)F)ccc1C(=O)N/N=C/c1c(Cl)cccc1Cl", 1),
    ("Cc1cccc2c(Nc3ccc(NS(C)(=O)=O)cc3)c3ccc([N+](=O)[O-])cc3nc12", 1),
    ("COc1cccc(C(=O)NNc2nc(N3CCN(C4CCCCC4)CC3)nc(N3CCN(C(c4ccccc4)c4ccccc4)CC3)n2)c1", -1),
    ("CCC(OC(=O)CC(C)C)c1ccccc1 (configuration not stated)", -1),
    ("COc1ccc(C(=O)c2sc3nc(-c4cccs4)ccc3c2N)cc1OC", -1),
    ("COc1cc(/C=C/C(=O)c2cc(-c3ccc(C(F)(F)F)cc3)ccc2O)cc(OC)c1OC", -1),
    ("COC(=O)c1ccc(Cn2ccc(=O)[nH]c2=O)cc1", -1),
    ("COc1ccc(-c2csc(NC(=O)CO[N+](=O)[O-])n2)cc1", -1),
    ("O=C(c1ccc(Cl)cc1)c1no[n+]([O-])c1C(=O)c1ccc(Cl)cc1", 1),
    ("Oc1ccccc1-c1nnc(Cn2c(Cc3cccc4ccccc34)nc3ccccc32)o1", -1),
    ("CCN1CCOC1C(C)C (configuration not stated)", -1),
    ("CN1CCN(c2nc(-c3cccnc3)nc3sc4c(c23)CCCCCC4)CC1", -1),
    ("Cc1ccc2oc(=O)cc(/C(=C3/C=CC=N3)c3ccc[nH]3)c2c1", 1),
    ("O=C(NC1CCN(Cc2ccccc2)CC1)c1cc(-c2ccncc2)nc2ccc(Cl)cc12", -1),
]

* * *

- Tested on: UACC-257 melanoma
- experiment: NCI-60 one-dose screen, 48 h
- measurement_conditions: 10 µM
About 83,000 compounds went through this panel and 20% of them were active in at least one assay; those are over-represented in the sample as a whole. Activity calls are given as the source filed them. Rule for the calls: active = growth percent below 10; inactive = the rest.
Classes used: active, inactive

# compound, class
data = [
    ("O=C(Nc1cccc(C(F)(F)F)c1)C(Cl)Cl", "inactive"),
    ("COc1c(C)c(C)c(OC)c2c1[nH]c(=O)c1c3cccnc3cn21", "inactive"),
    ("NC1CCC(Nc2nc(NCc3cc(Cl)ccc3O)c3ncn(C4CCCC4)c3n2)CC1 (stereo not given)", "active"),
    ("COc1ccccc1CNCCCN1C(=O)c2ccc3c4c(ccc(c24)C1=O)C(=O)N(CCCNCCNCCCN)C3=O", "active"),
    ("N#Cc1c(-c2ccccc2)nc(SCC(=O)N2CCOCC2)[nH]c1=O", "inactive"),
]

* * *

- Tested on: HOP-92 NSCLC
- experiment: NCI-60 one-dose screen, 48 h
- measurement_conditions: 10 µM
About 83,000 compounds went through this panel and 20% of them were active in at least one assay; those are over-represented in the sample as a whole. Active and inactive are the calls of the source. The calls were made as follows: active = growth percent below 10; inactive = the rest.
Classes used: True (active), False (inactive)

# compound, class
records = [
    ("Cc1ccc(-n2nnc3c(sc4ccccc43)c2=O)cc1", "True"),
    ("COc1ccc(Cn2cc3c(c2-c2cc(OC)c(OC)c(OC)c2)CCc2cnoc2-3)cc1[N+](=O)[O-]", "False"),
    ("CCCCN(CCCC)c1ccc(C(=NC(C)CCCN(CC)CC)c2ccc(N(C)C)cc2)cc1 (stereo not given)", "True"),
    ("FC(F)(F)c1ccc(-c2cnc(Cl)nc2NCc2cc(C(F)(F)F)cc(C(F)(F)F)c2)cc1", "True"),
    ("COc1ccc(/C(CS(=O)(=O)c2ccccc2)=N\\O)cc1", "False"),
    ("Cc1nc(Nc2nc3ccccc3o2)nc(-c2cccc([N+](=O)[O-])c2)c1C(=O)Nc1ccc(F)c(Cl)c1", "True"),
    ("Fc1ccc(-c2cc(C(Cl)Cl)no2)cc1", "False"),
    ("C#CCn1c(-c2cccc(OCCCCl)c2)nc2c1c(=O)n(C)c(=O)n2C", "False"),
    ("Cc1nc2sccn2c1-c1csc(Nc2cccc(Cl)c2C)n1", "False"),
    ("Cc1ccc(-c2cc(-c3cccc(Nc4ccnc5cc(Cl)ccc45)c3)nc3nc(N)[nH]c(=O)c23)cc1", "False"),
]

* * *

- Tested on: A498 renal
- experiment: NCI-60 one-dose screen, 48 h (100 = growth as untreated, 0 = no growth, -100 = all killed)
- measurement_conditions: 10 µM
About 83,000 compounds went through this panel and 20% of them were active in at least one assay; those are over-represented in the sample as a whole. Activity calls are given as the source filed them. Rule for the calls: active = growth percent below 10; inactive = the rest.
property_label: growth

# line_notation, target_system, experimental_value
records = [
    ("CNC(=S)Sc1ccc([N+](=O)[O-])cc1[N+](=O)[O-]", "A498 renal", "80.6% (inactive)"),
    ("O=C(NCc1cn(Cc2cccc(Oc3ccccc3)c2)nn1)c1cccnc1Nc1ccccc1", "A498 renal", "19.7% (inactive)"),
    ("O=C(OCc1ncc(-c2ccc(C(F)(F)F)cc2)c(NC2CCCCCC2)n1)c1c(F)c(F)c(F)c(F)c1F", "A498 renal", "102% (inactive)"),
    ("c1ccc(C2CCCCC2)c(OCCCCCN2CCNCC2)c1", "A498 renal", "52.4% (inactive)"),
    ("CCc1ccc(Nc2cc(C)nc3nc(C)nn23)cc1", "A498 renal", "34.7% (inactive)"),
]

* * *

- System: HCC-2998 colon
- experiment: NCI-60 one-dose screen, 48 h
- measurement_conditions: 10 µM
The panel holds about 83,000 compounds, 20% with a hit somewhere; the sample as a whole holds those more often. Activity calls are given as the source filed them. The calls were made as follows: active = growth percent below 10; inactive = the rest.
Classes used: active, inactive

# molecule, class
data = [
    ("Nc1cc2c(cc1Cl)-c1ccc(Cl)cc1C2=O", "inactive"),
    ("Cc1ccccc1C1=N[C@@H](Cc2ccccc2)C(=O)c2c(nc3ccccn23)N1", "inactive"),
    ("Cc1ccc(S(=O)(=O)N2CCc3ccccc3CC2)cc1", "inactive"),
    ("COCCNCC(O)Cn1c2ccc(Cl)cc2c2cc(Cl)ccc21 (configuration not stated)", "active"),
    ("CN1CCN(c2nc(-c3cccnc3)nc3sc4c(c23)CCCCCC4)CC1", "inactive"),
    ("Cc1nc(Nc2nc3ccccc3o2)nc(-c2cccc([N+](=O)[O-])c2)c1C(=O)Nc1ccc(F)c(Cl)c1", "active"),
    ("C#CCNCCN1C(=O)c2ccc3c4c(ccc(c24)C1=O)C(=O)N(CCNCC#C)C3=O", "inactive"),
    ("CCN(Cc1ccccc1)C1CCN(Cc2cc(Br)ccc2O)CC1", "active"),
    ("CCn1nc(-c2ccccn2)c2cccnc2c1=S", "inactive"),
    ("S=C(Cc1ccc(-c2ccccc2)cc1)N1CCOCC1", "inactive"),
    ("N=C(N)c1ccc(-c2ccc(-c3cccs3)s2)nc1", "active"),
    ("COc1ccc(-c2nsc3c2NC(=O)CC3c2ccc(Cl)cc2)cc1 (configuration not stated)", "inactive"),
    ("CCCc1c(CC)c(=N)c2ccccc2n1C", "inactive"),
    ("COCCOC(=O)NC(=O)Nc1ccc(/C(=N/O)c2ccc(Cl)cc2)cc1", "active"),
    ("Oc1[nH]c2ccccc2c1/C=c1/cc2c(c(-c3ccc(C(F)(F)F)cc3)n1)=Nc1ccccc1-2", "inactive"),
    ("CCN(CC)CCOC(=O)c1ccc(N=Nc2ccc(O)c(OC)c2)cc1", "inactive"),
    ("Cc1ccc2nc(-c3ccc(OCC(=O)N=Nc4c(O)[nH]c5ccccc45)cc3)[nH]c2c1", "inactive"),
    ("CC(C)(C)c1ccc(OCCCCCCN2CCNCC2)cc1", "active"),
    ("Oc1ccc(/C=N\\Nc2ccccn2)c(O)c1", "inactive"),
    ("CS(=O)(=O)Nc1ccc(OCc2nnc(-c3ccc(Cl)cc3)o2)c(F)c1", "inactive"),
    ("CCc1nn2c(-c3cc(OC)c(OC)c(OC)c3)c(-c3cc(OC)c(OC)c(OC)c3)nc2s1", "inactive"),
    ("Cc1ccccc1[P+](Cc1ccccc1)(c1ccccc1)c1ccccc1", "inactive"),
]
